The reported numbers originate from patent US20160185837A1.

For each of the binders below, state its cAMP EC50.
Target: T1, mouse GLP-1 receptor (mouse, UniProt O35659 22-463)
T1 sequence (looked up): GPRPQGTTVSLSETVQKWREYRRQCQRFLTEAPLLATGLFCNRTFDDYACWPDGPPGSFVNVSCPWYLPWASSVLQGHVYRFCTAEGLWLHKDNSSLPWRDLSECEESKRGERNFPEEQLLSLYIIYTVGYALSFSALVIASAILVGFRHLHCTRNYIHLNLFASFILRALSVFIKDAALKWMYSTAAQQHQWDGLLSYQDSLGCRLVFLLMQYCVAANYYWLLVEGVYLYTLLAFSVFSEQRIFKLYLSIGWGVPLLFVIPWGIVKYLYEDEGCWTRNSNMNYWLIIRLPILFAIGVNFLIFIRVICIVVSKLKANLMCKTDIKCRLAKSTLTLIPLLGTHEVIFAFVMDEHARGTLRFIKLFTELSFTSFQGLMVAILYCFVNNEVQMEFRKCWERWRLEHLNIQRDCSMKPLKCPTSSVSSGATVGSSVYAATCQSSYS
Test: cell-based or functional assay
# output: bare number, implied unit nM

Please give the documented cAMP EC50 of IP228 (Fc fusion) YSEGTFTSDYSKLLEEEAVRLFIEWLKNGGAAAGGSGSTASSGSGSATGGGGAATHTCPPCPAPEF
0.69

Please give the documented cAMP EC50 of IP272 (Fc fusion) YSEGTFTSDYSKLLEEEAVRLFIEWLLAQKAPPGGSGSTASSGSGSATGGGGAATHTCPPC
2.3

Please give the documented cAMP EC50 of IP257 (Fc fusion) SEGTFTSDYSKLLEEEAVRLFIEWLVKGPGGGGGSGGGGSGGGGSGGGGSATHTCPPCPAPEF
46

Please give the documented cAMP EC50 of IP124 (Fc fusion) YSEGTFTSDYSKLLEEEAVRLFIEWLVKGAAAGGSGSTASSGSGSATGGGGAATHTCPPCPAPEF
0.42

Please give the documented cAMP EC50 of IP293 (Fc fusion) YSEGTFTSDYSKLLEEEAVRCFIECLVKGPGGGGGGGGGGGGGGGGGGGGACPPC
13
